Ref: paper PMC10745926

Molecular target: α4β2* nAChR (Rattus norvegicus, UniProt P09483+P12390)
Construct: Horizontal brain slices, 10 µm thick from male Sprague Dawley rats; from tissue; host or cells: rat brain slices (male Sprague Dawley), several brain regions
Test: [3H]cytisine competition binding on rat brain slices (autoradiography)
Conditions: rat brain slices, Frontal Cortex; read-out: Inhibition constants (IC50), [3H]Cytisine, α4β2* nAChRs
reportedEndpoint: IC50 (µM)

[
  {
    "molecule": "c1ncc(N2CCN3CCC2CC3)cc1OCC1CCN1 (stereo not shown)",
    "target": "α4β2* nAChR (Rattus norvegicus, UniProt P09483+P12390)",
    "reportedEndpoint": "IC50",
    "reported": 0.109
  }
]
